Below is a list of entries, each paired with its recorded AC50 value.
Biological target: Thromboxane A2 receptor (Homo sapiens, UniProt P21731); also: assay procedure not described here
Sequence (P21731 whole entry): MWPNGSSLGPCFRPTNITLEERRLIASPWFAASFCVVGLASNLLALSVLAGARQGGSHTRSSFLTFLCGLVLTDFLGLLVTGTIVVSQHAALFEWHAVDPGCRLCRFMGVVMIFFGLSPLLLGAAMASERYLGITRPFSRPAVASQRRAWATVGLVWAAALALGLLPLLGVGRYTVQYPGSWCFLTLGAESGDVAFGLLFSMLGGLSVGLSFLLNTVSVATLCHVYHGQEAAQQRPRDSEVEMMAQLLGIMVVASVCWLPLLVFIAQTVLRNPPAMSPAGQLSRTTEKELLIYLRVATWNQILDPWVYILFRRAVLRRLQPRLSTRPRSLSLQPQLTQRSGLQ

CCC(C)n1ncn(-c2ccc(N3CCN(c4ccc(OCC5COC(Cn6cncn6)(c6ccc(Cl)cc6Cl)O5)cc4)CC3)cc2)c1=O (centres undefined) [ITRACONAZOLE]; > 30 µM

// query Fill in: AC50 of `CC=CC(=O)N(CC)c1ccccc1C` is ___
// result > 10 µM

// query Fill in: AC50 of CC1=C(C(=O)O)N2C(=O)[C@@H](NC(=O)[C@H](N)c3ccccc3)[C@H]2SC1 [CEPHALEXIN ANHYDROUS] is ___
// result > 30 µM

// query Fill in: AC50 of CN1C(C(=O)Nc2ccccn2)=C(O)c2sc(Cl)cc2S1(=O)=O [LORNOXICAM] is ___
// result > 30 µM

// query Fill in: AC50 of CC(=O)O[C@H]1CC[C@@]2(C)C(=CC[C@@H]3[C@@H]2CC[C@]2(C)C(c4cccnc4)=CC[C@@H]32)C1 [ABIRATERONE ACETATE] is ___
// result > 30 µM

// query Fill in: AC50 of CCCN(CCC)C(=O)C(CCC(=O)O)NC(=O)c1ccccc1 (centres undefined) [PROGLUMIDE] is ___
// result > 30 µM

// query Fill in: AC50 of NS(=O)(=O)Cc1noc2ccccc12 [ZONISAMIDE] is ___
// result > 10 µM
